FYI, the data here is from paper PMC6563694.

Record: pKi reported on human histamine H3 receptor (hH3R) (Homo sapiens).
Sequence (Q9Y5N1 whole entry): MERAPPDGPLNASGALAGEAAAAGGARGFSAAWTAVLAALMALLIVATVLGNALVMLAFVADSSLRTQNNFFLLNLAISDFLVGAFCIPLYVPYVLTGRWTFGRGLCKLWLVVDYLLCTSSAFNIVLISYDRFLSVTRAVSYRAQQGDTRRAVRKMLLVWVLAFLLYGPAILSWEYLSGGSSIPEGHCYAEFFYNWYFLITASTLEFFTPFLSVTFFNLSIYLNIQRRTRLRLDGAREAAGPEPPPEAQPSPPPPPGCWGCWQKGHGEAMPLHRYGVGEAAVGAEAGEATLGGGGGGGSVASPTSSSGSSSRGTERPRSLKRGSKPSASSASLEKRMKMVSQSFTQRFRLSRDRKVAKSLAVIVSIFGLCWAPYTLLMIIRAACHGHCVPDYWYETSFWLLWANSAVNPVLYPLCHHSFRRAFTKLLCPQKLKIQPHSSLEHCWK
pKi: −log10 of the molar value.
recorded endpoint: pKi

> print(dat)
                                   molecule  readout.number
1  Fc1cccc(/N=N\c2cccc(Cc3c[nH]cn3)c2)c1 [compound 67, 67 cis (PSS cis)]            7.42
2  Cc1cccc(/N=N/c2cccc(Cc3c[nH]cn3)c2)c1 [compound 77, 77 trans]            7.39
3  Fc1ccc(/N=N/c2cccc(Cc3c[nH]cn3)c2)cc1 [compound 68, 68 trans]            7.69
